Known Percent Mortality of a selection of molecules
- System: tobacco budworm (Heliothis virescens [Fabricius])
- ASSAY TEXT: surface-treated diet test against the tobacco budworm
- Format: in vivo
- TEST SETTINGS: tobacco budworm second instar larvae; surface-treated diet; 0.25 millimoles of candidate insecticide on the surface of the diet; five-day exposure; compared to total number of insects infested
Value expressed in %; do not type the unit.

Task item: Give its Percent Mortality value. Item: CNC(=O)Oc1ccc(CN2CCC(C(OC(=O)Nc3ccccc3)c3ccc(C(F)(F)F)cc3)CC2)cc1 (stereo not shown) [Compound 521]
Reply: 100

Task item: Give its Percent Mortality value. Item: [O-][N+]1(Cc2ccc(Oc3ncccc3C(F)(F)F)cc2)CCC(=C(c2ccc(C(F)(F)F)cc2)c2ccc(C(F)(F)F)cc2)CC1 (stereo not shown) [Compound 109]
Reply: 100

Task item: Give its Percent Mortality value. Item: O=C(Nc1ccc(F)cc1)OC(c1ccc(Cl)c(Cl)c1)C1CCN(Cc2ccc(Oc3ccccn3)cc2)CC1 (stereo not shown) [Compound 646]
Reply: 100

Task item: Give its Percent Mortality value. Item: CCn1nnc(-c2ccc(CN3CCC(C(OC(=O)Nc4ccc(Cl)c(Cl)c4)c4cccc(F)c4)CC3)cc2)n1 (stereo not shown) [Compound 583]
Reply: 100

Task item: Give its Percent Mortality value. Item: CCn1nnc(-c2ccc(CN3CCC(C(OC(=O)Nc4cc(Cl)ccc4Cl)c4ccc(C(F)(F)F)cc4)CC3)cc2)n1 (stereo not shown) [Compound 281]
Reply: 100

More entries:
Task item: Give its Percent Mortality value. Item: Cn1nnc(-c2ccc(CN3CCC(C(NC(=O)c4ccccc4Cl)c4ccc(OC(F)(F)F)cc4)CC3)cc2)n1 (stereo not shown) [Compound 322]
Reply: 0

Task item: Give its Percent Mortality value. Item: Cn1nnc(-c2ccc(CN3CCC(C(NC(=O)Nc4ccc(Cl)cc4)c4ccc(OC(F)(F)F)cc4)CC3)cc2)n1 (stereo not shown) [Compound 336]
Reply: 100

Task item: Give its Percent Mortality value. Item: CCCCCc1ccc(CN2CCC(C(OC(=O)Nc3cc(F)cc(F)c3)c3ccc(C(F)(F)F)cc3)CC2)cc1 (stereo not shown) [Compound 467]
Reply: 0

Task item: Give its Percent Mortality value. Item: Cn1nnc(-c2ccc(CN3CCC(C(NC(=O)c4ccccc4)c4ccc(OC(F)(F)F)cc4)CC3)cc2)n1 (stereo not shown) [Compound 321]
Reply: 17

Task item: Give its Percent Mortality value. Item: O=C(Nc1cc(F)cc(F)c1)OC(c1ccc(C(F)(F)F)cc1)C1CCN(Cc2ccc(Oc3c(F)cccc3F)cc2)CC1 (stereo not shown) [Compound 548]
Reply: 100

Task item: Give its Percent Mortality value. Item: O=C(Nc1cc(F)cc(F)c1)OC(c1ccc(C(F)(F)F)cc1)C1CCN(Cc2ccc(NC(=O)c3c(F)cccc3F)cc2)CC1 (stereo not shown) [Compound 552]
Reply: 100

Task item: Give its Percent Mortality value. Item: O=C(Nc1cccnc1Cl)OC(c1ccc(C(F)(F)F)cc1)C1CCN(Cc2ccc(Oc3ccccn3)cc2)CC1 (stereo not shown) [Compound 447]
Reply: 100

---

- Tested on: tobacco budworm (Heliothis virescens [Fabricius])
- ASSAY TEXT: surface-treated diet test against the tobacco budworm
- Assay type: in vivo
- TEST SETTINGS: tobacco budworm second instar larvae; surface-treated diet; 0.25 millimoles of candidate insecticide on the surface of the diet; five-day exposure; compared to total number of insects infested
Known Percent Mortality of a selection of compounds
Value expressed in %; do not type the unit.

Task item: Give its Percent Mortality value. Item: CCCOc1ccc(CN2CCC(C(OC(=O)Nc3ccc(C(F)(F)F)cc3)c3ccc(Cl)cc3)CC2)cc1 (stereo not shown)
Reply: 100

Task item: Give its Percent Mortality value. Item: CCNC(=O)Nc1ccc(CN2CCC(C(OC(=O)Nc3cc(F)cc(F)c3)c3ccc(C(F)(F)F)cc3)CC2)cc1 (stereo not shown)
Reply: 0

Task item: Give its Percent Mortality value. Item: CCn1nnc(-c2ccc(CN3CCC(C(OC(=O)Nc4ccc(Cl)cc4)c4ccc(C)cc4)CC3)cc2)n1 (stereo not shown)
Reply: 100

Now for the compound whose Percent Mortality we want.
Task item: Give its Percent Mortality value. Item: Cn1nnc(-c2ccc(CN3CCC(C(Oc4ccc(Cl)nn4)c4ccc(OC(F)(F)F)cc4)CC3)cc2)n1 (stereo not shown)
Reply: 83

---

Known Percent Mortality of a selection of compounds
- System: tobacco budworm (Heliothis virescens [Fabricius])
- ASSAY TEXT: surface-treated diet test against the tobacco budworm
- Assay type: in vivo
- TEST SETTINGS: tobacco budworm second instar larvae; surface-treated diet; 0.25 millimoles of candidate insecticide on the surface of the diet; five-day exposure; compared to total number of insects infested
Value expressed in %; do not type the unit.

Here is how some compounds turned out for Percent Mortality.
Task item: Give its Percent Mortality value. Item: CCON=Cc1ccc(CN2CCC(C(OC(=O)Nc3ccc(OC)cc3)c3ccc(C(F)(F)F)cc3)CC2)cc1 (centres unmarked)
Reply: 100

Task item: Give its Percent Mortality value. Item: O=C(NCc1ccc(Cl)cc1Cl)OC(c1ccc(C(F)(F)F)cc1)C1CCN(Cc2ccc(Oc3ccccn3)cc2)CC1 (centres unmarked)
Reply: 100

Task item: Give its Percent Mortality value. Item: O=C(Nc1cc(F)cc(F)c1)OC(c1ccc(Cl)cc1)C1CCN(Cc2ccc(Oc3ccccn3)cc2)CC1 (centres unmarked)
Reply: 100

Task item: Give its Percent Mortality value. Item: CCn1nnc(-c2ccc(C[N+]3([O-])CCC(C(OC(=O)Nc4ccc(OC(F)(F)F)cc4)c4ccc(OC(F)(F)F)cc4)CC3)cc2)n1 (centres unmarked)
Reply: 100

Task item: Give its Percent Mortality value. Item: CCON=Cc1ccc(CN2CCC(C(OC(=O)Nc3ccc(Br)cc3)c3ccc(C(F)(F)F)cc3)CC2)cc1 (centres unmarked)
Reply: 100

More entries:
Task item: Give its Percent Mortality value. Item: FC(F)(F)c1ccc(C(OC(=S)Nc2cccc(C(F)(F)F)c2)C2CCN(Cc3ccc(Oc4ccccn4)cc3)CC2)cc1 (centres unmarked)
Reply: 100

Task item: Give its Percent Mortality value. Item: Cn1nnc(-c2ccc(C[N+]3([O-])CCC(C(OC(=O)Nc4ccc(Cl)cc4)c4ccc(OC(F)(F)F)cc4)CC3)cc2)n1 (centres unmarked)
Reply: 100

Task item: Give its Percent Mortality value. Item: O=C(Nc1cc(F)cc(F)c1)OC(c1ccc(C(F)(F)F)cc1)C1CCN(Cc2ccc(Oc3ccc(Cl)cn3)cc2)CC1 (centres unmarked)
Reply: 100

Task item: Give its Percent Mortality value. Item: CCn1nnc(-c2ccc(CN3CCC(C(OC(=O)Nc4ccc(I)cc4)c4ccc(OC(F)(F)F)cc4)CC3)cc2)n1 (centres unmarked)
Reply: 100

Task item: Give its Percent Mortality value. Item: CCON=Cc1ccc(CN2CCC(C(OC(=O)Nc3ccc(Br)cc3C(F)(F)F)c3ccc(C(F)(F)F)cc3)CC2)cc1 (centres unmarked)
Reply: 100

---

Known Percent Mortality of a selection of compounds
- Tested on: tobacco budworm (Heliothis virescens [Fabricius])
- ASSAY TEXT: surface-treated diet test against the tobacco budworm
- Type: in vivo
- TEST SETTINGS: tobacco budworm second instar larvae; surface-treated diet; 0.25 millimoles of candidate insecticide on the surface of the diet; five-day exposure; compared to total number of insects infested

Here is how some compounds turned out for Percent Mortality.
Task item: Kindly state the measured Percent Mortality obtained for CN(C(=O)OC(c1ccc(C(F)(F)F)cc1)C1CCN(Cc2ccc(Oc3ccccn3)cc2)CC1)c1ccccc1 (stereo not drawn) with tobacco budworm (Heliothis virescens [Fabricius]).
Reply: 0%

Task item: Kindly state the measured Percent Mortality obtained for CCn1nnc(-c2ccc(CN3CCC(C(OC(=O)Nc4cc(F)cc(F)c4)c4cccc(F)c4)CC3)cc2)n1 (stereo not drawn) with tobacco budworm (Heliothis virescens [Fabricius]).
Reply: 100%

More entries:
Task item: Kindly state the measured Percent Mortality obtained for CCON=Cc1ccc(CN2CCC(C(OC(=O)Nc3c(F)cccc3F)c3ccc(C(F)(F)F)cc3)CC2)cc1 (stereo not drawn) with tobacco budworm (Heliothis virescens [Fabricius]).
Reply: 100%

---

- System: tobacco budworm (Heliothis virescens [Fabricius])
- ASSAY TEXT: surface-treated diet test against the tobacco budworm
- Type: in vivo
- TEST SETTINGS: tobacco budworm second instar larvae; surface-treated diet; 0.25 millimoles of candidate insecticide on the surface of the diet; five-day exposure; compared to total number of insects infested
Known Percent Mortality of a selection of compounds
Value expressed in %; do not type the unit.

Here is how some compounds turned out for Percent Mortality.
Task item: Give its Percent Mortality value. Item: COc1ccccc1C(=O)Nc1ccc(CN2CCC(C(OC(=O)Nc3cc(F)cc(F)c3)c3ccc(C(F)(F)F)cc3)CC2)cc1 (stereo not shown)
Reply: 100

Task item: Give its Percent Mortality value. Item: CCON=Cc1ccc(CN2CCC(C(OC(=O)Nc3ccc(-c4ccccc4)cc3)c3ccc(C(F)(F)F)cc3)CC2)cc1 (stereo not shown)
Reply: 100

Task item: Give its Percent Mortality value. Item: CCN(C(=O)OC(c1ccc(Cl)cc1)C1CCN(Cc2ccc(Oc3ccccn3)cc2)CC1)c1ccc(C(F)(F)F)cc1 (stereo not shown)
Reply: 100

More entries:
Task item: Give its Percent Mortality value. Item: CCn1nnc(-c2ccc(CN3CCC(C(OC(=O)Nc4ccc(Cl)cc4)c4ccc(-c5ccccc5)cc4)CC3)cc2)n1 (stereo not shown)
Reply: 83

Where do the numbers come from? From patent US7300946B2.
